Listed compounds paired with reported inhibition at 20 min, 10 µM
# measured-on: CYP1A2 (Homo sapiens)
# Sequence (P05177 whole entry): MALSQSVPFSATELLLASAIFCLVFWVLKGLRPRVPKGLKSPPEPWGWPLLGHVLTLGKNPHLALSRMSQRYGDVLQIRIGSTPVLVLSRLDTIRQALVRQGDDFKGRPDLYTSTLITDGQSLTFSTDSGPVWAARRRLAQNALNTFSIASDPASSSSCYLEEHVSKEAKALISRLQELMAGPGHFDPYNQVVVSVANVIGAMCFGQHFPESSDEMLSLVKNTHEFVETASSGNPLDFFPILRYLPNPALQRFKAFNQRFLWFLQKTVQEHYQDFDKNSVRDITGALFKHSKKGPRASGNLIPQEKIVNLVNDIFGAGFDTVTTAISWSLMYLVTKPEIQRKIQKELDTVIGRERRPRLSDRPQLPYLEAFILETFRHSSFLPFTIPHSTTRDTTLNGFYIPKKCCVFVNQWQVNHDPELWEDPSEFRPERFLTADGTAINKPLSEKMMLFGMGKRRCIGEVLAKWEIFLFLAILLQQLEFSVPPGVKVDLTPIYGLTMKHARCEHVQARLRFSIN
# experiment: Inhibition of CYP1A2 in human liver microsomes at 10 uM after 20 mins in presence of NADPH by LC-MS/MS analysis
# Assay type: ADME
assay-metric: inhibition at 20 min, 10 µM (%)

>>> experimental_value("Cc1cccc(Cl)c1Nc1nc2cc(C(=O)Nc3ccc(C(F)(F)F)cc3)c3c(c2[nH]1)CC(C)(C)O3")
25
>>> experimental_value("Cc1cc(C(F)(F)F)ccc1NC(=O)c1cc2nc(Nc3c(F)cccc3Cl)[nH]c2c2c1OC(C)(C)C2")
26
>>> experimental_value("CC1(C)Cc2c(c(C(=O)Nc3ccc(C(F)(F)F)cn3)cc3nc(Nc4c(Cl)cccc4Cl)[nH]c23)O1")
4

---

Recorded inhibition by entry
# System: CHO
# experiment: Inhibition of rat mPGES1 expressed in CHO cells assessed as reduction in PGE2 production at 10 uM using PGH2 as substrate incubated for 10 mins followed by substrate addition measured for 1 min relative to control
# Type: cell-based
assay-metric: inhibition (%)

>>> experimental_value("CC1(C)Cc2c(c(C(=O)Nc3cc(C(F)(F)F)ccc3F)cc3nc(Nc4c(F)cccc4Cl)[nH]c23)O1")
11.7
>>> experimental_value("Cc1cccc(Cl)c1Nc1nc2cc(C(=O)Nc3cc(C(F)(F)F)ccc3F)c3c(c2[nH]1)CC(C)(C)O3")
0
>>> experimental_value("Cc1cccc(Cl)c1Nc1nc2cc(C(=O)Nc3cc(C(F)F)ccc3F)c3c(c2[nH]1)CC(C)(C)O3")
0.7
>>> experimental_value("CC1(C)Cc2c(c(C(=O)Nc3ccc(F)c(C(F)(F)F)c3)cc3nc(Nc4c(F)cccc4Cl)[nH]c23)O1")
10.5
>>> experimental_value("Cn1c(Nc2c(F)cccc2Cl)nc2cc(C(=O)Nc3cccc(C(F)(F)F)c3)c3c(c21)CC(C)(C)O3")
3.4
>>> experimental_value("CC1(C)Cc2c(c(C(=O)Nc3ccc(C(F)(F)F)cn3)cc3nc(Nc4c(Cl)cccc4Cl)[nH]c23)O1")
7.1

---

# measured-on: UniProt:P08684
# Sequence (P08684 whole entry): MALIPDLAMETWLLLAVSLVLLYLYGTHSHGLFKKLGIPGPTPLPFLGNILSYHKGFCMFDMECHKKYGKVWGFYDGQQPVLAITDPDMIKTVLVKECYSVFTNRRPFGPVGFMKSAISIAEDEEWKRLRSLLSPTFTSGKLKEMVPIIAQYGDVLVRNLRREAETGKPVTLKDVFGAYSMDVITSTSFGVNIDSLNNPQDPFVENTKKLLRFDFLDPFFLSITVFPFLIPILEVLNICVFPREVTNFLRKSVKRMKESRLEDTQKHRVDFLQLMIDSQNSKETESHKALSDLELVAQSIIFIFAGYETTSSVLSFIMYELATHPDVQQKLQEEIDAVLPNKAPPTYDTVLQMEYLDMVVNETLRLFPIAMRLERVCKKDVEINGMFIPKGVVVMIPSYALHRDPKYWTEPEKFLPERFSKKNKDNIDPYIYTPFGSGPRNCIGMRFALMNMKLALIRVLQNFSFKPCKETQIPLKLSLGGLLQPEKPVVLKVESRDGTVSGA
# experiment: Inhibition of CYP3A4 in human liver microsomes at 10 uM after 20 mins in presence of NADPH by LC-MS/MS analysis
# Type: ADME
The threshold is inclusive: inhibition at 20 min, 10 µM of exactly 20% counts as Yes; values below receive No.

>>> group("CC1(C)Cc2c(c(C(=O)Nc3c(F)cccc3F)cc3nc(Nc4c(Cl)cccc4Cl)[nH]c23)O1")
"Yes"
>>> group("Cc1cccc(Cl)c1Nc1nc2cc(C(=O)Nc3cc(C(F)F)ccc3F)c3c(c2[nH]1)CC(C)(C)O3")
"No"
>>> group("Cc1cccc(Cl)c1Nc1nc2cc(C(=O)Nc3ccc(F)c(C(F)(F)F)c3)c3c(c2[nH]1)CC(C)(C)O3")
"Yes"
>>> group("CC1(C)Cc2c(c(C(=O)Nc3ccccc3C(F)(F)F)cc3nc(Nc4c(Cl)cccc4Cl)[nH]c23)O1")
"No"
>>> group("CC1(C)Cc2c(c(C(=O)Nc3cc(C(F)F)ccc3F)cc3nc(Nc4c(F)cccc4Cl)[nH]c23)O1")
"No"
>>> group("CC1(C)Cc2c(c(C(=O)Nc3cc(C4CC4)ccc3F)cc3nc(Nc4c(Cl)cccc4Cl)[nH]c23)O1")
"Yes"
>>> group("CC1(C)Cc2c(c(C(=O)Nc3cc(C(F)(F)F)ccc3F)cc3nc(Nc4c(F)cccc4Cl)[nH]c23)O1")
"No"
>>> group("Cn1c(Nc2c(F)cccc2Cl)nc2cc(C(=O)Nc3ccc(C(F)(F)F)cn3)c3c(c21)CC(C)(C)O3")
"No"

---

Recorded pIC50 values for a group of compounds are listed next.
# measured-on: UniProt O14684
# experiment: Inhibition of mPGES1 in human whole blood assessed as reduction in LPS-induced PGE2 production measured after 20 to 24 hrs
pIC50: −log10 of the molar value.
assay-metric: pIC50

>>> experimental_value("CC1(C)Cc2c(c(C(=O)Nc3ccc(C(F)(F)F)cn3)cc3nc(Nc4c(Cl)cccc4Cl)[nH]c23)O1")
6.58
>>> experimental_value("CC1(C)Cc2c(c(C(=O)Nc3cc(C4CC4)ccc3F)cc3nc(Nc4c(Cl)cccc4Cl)[nH]c23)O1")
6.71
>>> experimental_value("Cc1cccc(Cl)c1Nc1nc2cc(C(=O)Nc3ccc(F)c(C(F)(F)F)c3)c3c(c2[nH]1)CC(C)(C)O3")
6.06
>>> experimental_value("Cc1cccc(Cl)c1Nc1nc2cc(C(=O)Nc3cc(C(F)F)ccc3F)c3c(c2[nH]1)CC(C)(C)O3")
6.79
>>> experimental_value("CC1(C)Cc2c(c(C(=O)Nc3cc(C(F)F)ccc3F)cc3nc(Nc4c(F)cccc4Cl)[nH]c23)O1")
6.47
>>> experimental_value("CC1(C)Cc2c(c(C(=O)Nc3ccc(C(F)(F)F)cc3F)cc3nc(Nc4c(F)cccc4Cl)[nH]c23)O1")
6.24
>>> experimental_value("CC1(C)Cc2c(c(C(=O)Nc3cc(C(F)(F)F)ccc3F)cc3nc(Nc4c(F)cccc4Cl)[nH]c23)O1")
6.59
>>> experimental_value("CC1(C)Cc2c(c(C(=O)Nc3c(F)cccc3F)cc3nc(Nc4c(Cl)cccc4Cl)[nH]c23)O1")
6.18
>>> experimental_value("Cn1c(Nc2c(F)cccc2Cl)nc2cc(C(=O)Nc3cccc(C(F)(F)F)c3)c3c(c21)CC(C)(C)O3")
6.39

---

# experiment: Oral bioavailability in cynomolgus monkey at 10 mg/kg
# Type: ADME, organism-based, Macaca fascicularis
# protocol-conditions: in vivo
Listing of recorded bioavailability by entry.
assay-metric: bioavailability (%)

>>> experimental_value("Cc1cccc(Cl)c1Nc1nc2cc(C(=O)Nc3cc(C(F)(F)F)ccc3F)c3c(c2[nH]1)CC(C)(C)O3")
11
>>> experimental_value("CC1(C)Cc2c(c(C(=O)Nc3ccc(C(F)(F)F)cn3)cc3nc(Nc4c(Cl)cccc4Cl)[nH]c23)O1")
21

---

Entries and their measured Vd follow.
# experiment: Apparent volume of distribution in cynomolgus monkey at 1 mg/kg, iv
# Type: ADME, organism-based, Macaca fascicularis
# protocol-conditions: in vivo, read-out: Vz
assay-metric: Vd (L/kg)

>>> experimental_value("CC1(C)Cc2c(c(C(=O)Nc3ccc(C(F)(F)F)cn3)cc3nc(Nc4c(Cl)cccc4Cl)[nH]c23)O1")
4.1
>>> experimental_value("CC1(C)Cc2c(c(C(=O)Nc3ccc(F)c(C(F)(F)F)c3)cc3nc(Nc4c(F)cccc4Cl)[nH]c23)O1")
1.83
>>> experimental_value("Cc1cccc(Cl)c1Nc1nc2cc(C(=O)Nc3cc(C(F)(F)F)ccc3F)c3c(c2[nH]1)CC(C)(C)O3")
2.1

---

# measured-on: Prostaglandin E synthase (Homo sapiens, UniProt O14684)
# Sequence (O14684 whole entry): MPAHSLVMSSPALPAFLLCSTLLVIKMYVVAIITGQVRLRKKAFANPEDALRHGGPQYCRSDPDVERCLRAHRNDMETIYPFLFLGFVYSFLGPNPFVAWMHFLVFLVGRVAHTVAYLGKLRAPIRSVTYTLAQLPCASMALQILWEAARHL
# experiment: Inhibition of mPGES1 in human A549 cells assessed as reduction in IL-1beta-induced PGE2 production preincubated for 30 mins followed by incubation with IL-1beta for 16 to 20 hrs measured after 10 mins by HTRF assay
# Format: cell-based
Field: label. Allowed values: 1.0 (IC50 < 10 nM) or 0.0 (IC50 >= 10 nM).

>>> group("CC1(C)Cc2c(c(C(=O)Nc3ccc(C(F)(F)F)cn3)cc3nc(Nc4c(F)cccc4Cl)[nH]c23)O1")
0.0
>>> group("Cn1c(Nc2c(F)cccc2Cl)nc2cc(C(=O)Nc3cccc(C(F)(F)F)c3)c3c(c21)CC(C)(C)O3")
1.0
>>> group("CC1(C)Cc2c(c(C(=O)Nc3cc(C4CC4)ccc3F)cc3nc(Nc4c(Cl)cccc4Cl)[nH]c23)O1")
1.0
>>> group("Cc1cccc(Cl)c1Nc1nc2cc(C(=O)Nc3ccc(C(F)(F)F)cc3)c3c(c2[nH]1)CC(C)(C)O3")
0.0
>>> group("Cn1c(Nc2c(F)cccc2Cl)nc2cc(C(=O)Nc3ccc(C4CC4)cc3)c3c(c21)CC(C)(C)O3")
1.0
>>> group("CC1(C)Cc2c(c(C(=O)Nc3ccc(C(F)(F)F)cc3F)cc3nc(Nc4c(F)cccc4Cl)[nH]c23)O1")
1.0
>>> group("Cc1cccc(Cl)c1Nc1nc2cc(C(=O)Nc3cc(C(F)(F)F)ccc3F)c3c(c2[nH]1)CC(C)(C)O3")
0.0
